Target: UniProtKB P12268
Sequence (P12268 2-514 limits assumed): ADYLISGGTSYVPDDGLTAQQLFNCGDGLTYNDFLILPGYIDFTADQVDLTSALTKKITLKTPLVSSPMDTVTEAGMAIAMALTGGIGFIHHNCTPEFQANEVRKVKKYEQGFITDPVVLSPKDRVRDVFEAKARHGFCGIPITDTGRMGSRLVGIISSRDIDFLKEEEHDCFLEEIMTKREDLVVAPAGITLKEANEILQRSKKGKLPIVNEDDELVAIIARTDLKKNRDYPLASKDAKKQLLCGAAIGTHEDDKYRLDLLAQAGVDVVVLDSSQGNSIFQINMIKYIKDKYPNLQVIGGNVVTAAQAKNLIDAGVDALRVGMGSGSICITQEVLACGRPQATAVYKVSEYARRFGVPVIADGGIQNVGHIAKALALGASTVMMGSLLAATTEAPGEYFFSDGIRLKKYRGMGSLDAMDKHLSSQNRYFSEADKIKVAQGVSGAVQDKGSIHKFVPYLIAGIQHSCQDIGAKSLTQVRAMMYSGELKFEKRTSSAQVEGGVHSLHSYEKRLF
Experiment: Inhibition of human IMPDH2 using IMP at 10 uM as substrate in presence of NAD+ after 30 mins relative to control
The source made the active and inactive calls. No cut-off for these calls is given here.
testReadout: inhibition

Consider the worked cases shown below.
COc1ccc(NC(=O)COc2ccc(C(=O)/C=C/c3cc(OC)c(OC)c(OC)c3)cc2)cc1OC 20.6%
O=C(COc1ccc(C(=O)/C=C/c2c(F)cccc2F)cc1)NCc1ccc2c(c1)OCO2 inactive
O=C(COc1ccc(C(=O)/C=C/c2ccco2)cc1)Nc1ccc2c(c1)COC2=O 57.3%
COc1cc(/C=C/C(=O)c2cccc(OCC(=O)Nc3ccc4c(c3)COC4=O)c2)cc(OC)c1OC 63.7%

Please state inhibition for every molecule in the list that follows.
1. COc1ccc(/C=C/C(=O)c2ccc(OCC(=O)Nc3ccc4c(c3)COC4=O)cc2)cc1
2. O=C(COc1ccc(C(=O)/C=C/c2ccc(OCc3ccccc3)cc2)cc1)Nc1ccc2c(c1)COC2=O

Output line:
95.6%
52.2%

Please state inhibition for every molecule in the list that follows.
1. CCOc1ccc(/C=C/C(=O)c2ccc(OCC(=O)Nc3ccc(OC)c(OC)c3)cc2)cc1
2. O=C(COc1ccc(C(=O)/C=C/c2ccc(OCc3ccc(Cl)cc3)cc2)cc1)Nc1ccc2c(c1)COC2=O
3. O=C(COc1ccc(/C=C/C(=O)c2ccc(F)cc2)cc1)Nc1ccc2c(c1)COC2=O
4. O=C(COc1ccc(C(=O)/C=C/c2c(F)cccc2F)cc1)Nc1ccc2c(c1)COC2=O
5. COc1ccc(/C=C/C(=O)c2cccc(OCC(=O)Nc3ccc(OC)c(OC)c3)c2)cc1OC
6. CCOc1ccc(/C=C/C(=O)c2ccc(OCC(=O)NCc3ccc4c(c3)OCO4)cc2)cc1
7. COc1ccc(/C=C/C(=O)c2ccc(OCC(=O)NCc3ccc4c(c3)OCO4)cc2)cc1

Output line:
63.5%
39.1%
87.9%
94.2%
23.3%
inactive
inactive

Please state inhibition for every molecule in the list that follows.
1. COc1ccc(NC(=O)COc2ccc(C(=O)/C=C/c3ccccc3Cl)cc2)cc1OC
2. CCCOc1ccc(/C=C/C(=O)c2ccc(OCC(=O)Nc3ccc4c(c3)COC4=O)cc2)cc1

Output line:
25.7%
60.1%
